Values compiled from patent US11964941B2.

- System: KCL22 CML cells
- Measurement description: MTS cell viability, KCL22 CML cells
- Assay type: cell-based, human
- Condition info: Homo sapiens, KCL-22, 48 h, read-out: IC50 for 50% inhibition of viability
Quantity measured: IC50
# answer = value followed by unit

QUERY: Fill in the blank: the reported IC50 of `CNCCO/N=C1/C(=C2/C(=O)Nc3ccc(Br)cc32)Nc2ccccc21` is ____.
RESULT: 57.4 nM

* * *

- Test system: A2058 melanoma cells
- Measurement description: MTS cell viability, A2058 melanoma cells
- Type: cell-based, human
- Condition info: 48 h, read-out: IC50 for 50% inhibition of viability
Quantity measured: pIC50
Note on pIC50: it is the negative log10 of concentration, concentration in mol/L.

QUERY: Fill in the blank: the reported pIC50 of CNCCO/N=C1/C(=C2/C(=O)Nc3ccc(Br)cc32)Nc2ccccc21 [5IN-1NH1s] is ____.
RESULT: 7.05

* * *

- Measured on: GSK3β (Homo sapiens, UniProt P49841)
- Sequence (P49841 whole entry, species assumed): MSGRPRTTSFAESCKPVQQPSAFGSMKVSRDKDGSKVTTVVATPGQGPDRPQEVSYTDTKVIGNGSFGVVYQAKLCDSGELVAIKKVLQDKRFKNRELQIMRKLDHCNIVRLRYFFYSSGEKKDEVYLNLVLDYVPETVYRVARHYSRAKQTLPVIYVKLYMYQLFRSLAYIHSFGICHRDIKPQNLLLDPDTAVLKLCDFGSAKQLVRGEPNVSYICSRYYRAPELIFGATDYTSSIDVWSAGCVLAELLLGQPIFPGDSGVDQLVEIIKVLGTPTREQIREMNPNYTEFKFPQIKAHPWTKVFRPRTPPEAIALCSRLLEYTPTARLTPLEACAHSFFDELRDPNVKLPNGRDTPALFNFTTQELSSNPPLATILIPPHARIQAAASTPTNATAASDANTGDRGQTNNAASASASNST
- Measurement description: Kinase profiling in vitro, GSK3β
- Condition info: recombinant GSK3β, 33P-ATP, 120 min
Quantity measured: pIC50
Note on pIC50: it is the negative log10 of concentration, concentration in mol/L.

QUERY: Lab note: need pIC50 with GSK3β (Homo sapiens, UniProt P49841) for entry CNCCO/N=C1/C(=C2/C(=O)Nc3ccc(Br)cc32)Nc2ccccc21 [5IN-1NH1s] , please look it up.
RESULT: 8.93

* * *

- Measured on: UniProtKB P10721
- Sequence (P10721 26-976): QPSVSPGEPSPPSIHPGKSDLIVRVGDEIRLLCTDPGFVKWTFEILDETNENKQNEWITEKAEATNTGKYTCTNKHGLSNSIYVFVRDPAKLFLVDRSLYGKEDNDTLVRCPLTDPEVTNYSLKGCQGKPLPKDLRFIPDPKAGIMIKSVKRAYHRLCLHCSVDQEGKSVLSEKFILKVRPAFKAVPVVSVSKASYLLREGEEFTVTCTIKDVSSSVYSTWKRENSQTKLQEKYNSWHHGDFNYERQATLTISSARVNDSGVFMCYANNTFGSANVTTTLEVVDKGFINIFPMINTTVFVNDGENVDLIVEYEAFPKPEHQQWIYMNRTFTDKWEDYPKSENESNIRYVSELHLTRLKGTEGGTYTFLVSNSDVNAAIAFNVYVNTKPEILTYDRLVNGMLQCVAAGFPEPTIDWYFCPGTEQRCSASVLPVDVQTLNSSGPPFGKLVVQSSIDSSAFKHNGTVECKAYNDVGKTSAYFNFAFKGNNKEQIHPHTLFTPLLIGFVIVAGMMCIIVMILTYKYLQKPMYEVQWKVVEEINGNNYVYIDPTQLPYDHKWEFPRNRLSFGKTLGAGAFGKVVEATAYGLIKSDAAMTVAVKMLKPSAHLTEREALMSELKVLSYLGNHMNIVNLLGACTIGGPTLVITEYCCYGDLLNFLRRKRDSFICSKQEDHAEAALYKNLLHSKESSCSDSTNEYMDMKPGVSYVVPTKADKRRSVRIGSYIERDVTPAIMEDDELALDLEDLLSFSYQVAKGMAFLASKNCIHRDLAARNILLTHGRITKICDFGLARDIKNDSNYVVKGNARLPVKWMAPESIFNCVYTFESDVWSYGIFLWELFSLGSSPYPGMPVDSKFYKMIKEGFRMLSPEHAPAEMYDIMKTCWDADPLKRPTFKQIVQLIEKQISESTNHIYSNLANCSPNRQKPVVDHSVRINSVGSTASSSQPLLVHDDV
- Measurement description: In vitro kinase assay, recombinant c-KIT
- Assay type: biochemical
- Condition info: 33P-ATP, 120 min
Quantity measured: IC50 (µM)
Entry rule: numbers only, all in µM.

QUERY: Fill in the blank: the reported IC50 of `O=C1Nc2ccc(Br)cc2C1=C1Nc2ccccc2C1=NOCCN1CCNCC1` is ____.
RESULT: 0.0477

QUERY: Fill in the blank: the reported IC50 of `CNCCO/N=C1/C(=C2/C(=O)Nc3ccc(Br)cc32)Nc2ccccc21` is ____.
RESULT: 0.321

* * *

- Test system: A549 lung cancer cells
- Measurement description: MTS cell viability, A549 lung cancer cells
- Type: cell-based, human
- Condition info: Homo sapiens, 48 h, read-out: IC50 for 50% inhibition of viability
Quantity measured: pIC50
Note on pIC50: it is the negative log10 of concentration, concentration in mol/L.

QUERY: Fill in the blank: the reported pIC50 of CNCCO/N=C1/C(=C2/C(=O)Nc3ccc(Br)cc32)Nc2ccccc21 [5IN-1NH1] is ____.
RESULT: 7.18

* * *

- Measured on: FMS (Homo sapiens)
- Sequence (P07333 20-972, species assumed): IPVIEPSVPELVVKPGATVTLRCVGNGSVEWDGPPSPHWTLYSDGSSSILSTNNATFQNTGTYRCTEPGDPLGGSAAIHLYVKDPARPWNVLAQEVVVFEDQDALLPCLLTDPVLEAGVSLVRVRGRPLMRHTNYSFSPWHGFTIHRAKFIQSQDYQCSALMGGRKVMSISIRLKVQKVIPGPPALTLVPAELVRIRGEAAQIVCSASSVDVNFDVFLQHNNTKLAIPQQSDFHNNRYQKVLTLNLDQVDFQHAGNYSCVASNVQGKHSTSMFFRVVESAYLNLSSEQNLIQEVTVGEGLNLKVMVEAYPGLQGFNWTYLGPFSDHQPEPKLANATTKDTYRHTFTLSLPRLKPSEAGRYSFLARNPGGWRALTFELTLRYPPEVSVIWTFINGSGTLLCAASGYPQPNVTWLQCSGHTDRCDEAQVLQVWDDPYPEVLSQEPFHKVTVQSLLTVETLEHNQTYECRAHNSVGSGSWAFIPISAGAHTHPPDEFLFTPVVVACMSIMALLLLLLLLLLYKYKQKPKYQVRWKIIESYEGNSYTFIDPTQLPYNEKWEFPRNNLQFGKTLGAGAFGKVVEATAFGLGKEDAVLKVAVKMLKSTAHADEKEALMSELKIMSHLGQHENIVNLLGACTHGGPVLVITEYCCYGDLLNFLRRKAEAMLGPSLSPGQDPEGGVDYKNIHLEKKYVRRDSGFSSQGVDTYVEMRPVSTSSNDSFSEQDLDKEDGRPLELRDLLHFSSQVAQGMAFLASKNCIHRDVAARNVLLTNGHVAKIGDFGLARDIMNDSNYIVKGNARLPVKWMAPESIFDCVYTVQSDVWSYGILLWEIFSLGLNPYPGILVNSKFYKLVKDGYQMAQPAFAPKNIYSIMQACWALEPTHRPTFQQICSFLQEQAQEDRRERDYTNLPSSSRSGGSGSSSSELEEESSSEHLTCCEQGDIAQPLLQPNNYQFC
- Measurement description: In vitro kinase assay, recombinant FMS
- Condition info: 33P-ATP, 120 min
compounds and their reported pIC50
Note on pIC50: it is the negative log10 of concentration, concentration in mol/L.

{"Compound smiles": "CNCCO/N=C1/C(=C2/C(=O)Nc3ccc(Br)cc32)Nc2ccccc21", "pIC50": 7.80}

QUERY: Fill in the blank: the reported pIC50 of `O=C1Nc2ccc(Br)cc2C1=C1Nc2ccccc2C1=NOCCN1CCNCC1` is ____.
RESULT: 8.12
